Molecular target: Transcriptional activator protein LasR (Pseudomonas aeruginosa (strain ATCC 15692 / PAO1 / 1C / PRS 101 / LMG12228), UniProt P25084)
Sequence (P25084 whole entry): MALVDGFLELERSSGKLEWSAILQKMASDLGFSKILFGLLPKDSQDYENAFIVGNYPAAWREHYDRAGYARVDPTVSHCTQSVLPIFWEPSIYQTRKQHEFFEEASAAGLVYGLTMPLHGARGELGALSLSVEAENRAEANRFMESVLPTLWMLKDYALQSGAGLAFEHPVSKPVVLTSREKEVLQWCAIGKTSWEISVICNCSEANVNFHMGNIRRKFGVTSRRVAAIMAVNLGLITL
Experiment: Binding affinity to Pseudomonas aeruginosa PAO1 LasR assessed as dissociation constant by SPR analysis
property_label: pKd
Answers are plain numbers, as −log10 of the molar value.

The compound listed as `C/C=C/C=C/C(=O)NCC(C)C` has a reported pKd of 2.91

###

I'd be grateful if you could share measured inhibition at 48 h, 100 ug/ml for these entries.
Test: Cytotoxicity against human HepG2 cells assessed as inhibition of cell growth at 100 ug/ml measured after 48 hrs by CCK-8 method relative to control
Type: toxicity, cell-based
Conditions: at 100 µg/mL
Give bare numbers, in %.

Go through the items and report each one's inhibition at 48 h, 100 ug/ml.
1. C=C(C)CNC(=O)/C=C/CCC
2. C=CCSSCC=C [DIALLYLDISULFIDE]
3. C/C=C/C=C/C(=O)NCC(C)C

Given back:
1: 18.9; 2: 18.1; 3: 30.1

###

Test: Inhibition of quorum sensing system in Pseudomonas aeruginosa PAO1-lasB-gfp assessed as inhibition of lasB expression at 50 ug/ml incubated for 8 hrs under shaking condition by microplate reader based analysis relative to control
Settings: dose 50.0 µg/ml
property_label: inhibition (%)
Answers are plain numbers, in %.

Here's what some known entries look like.
{"molecule": "CCCCCC(=O)NCC(C)C", "inhibition (%)": 70}
{"molecule": "C/C=C/C(=O)NCC(C)C", "inhibition (%)": 63.7}
{"molecule": "C=C(C)CNC(=O)/C=C/C", "inhibition (%)": 67.5}
{"molecule": "CCC(=O)NCC(C)C", "inhibition (%)": 54.6}
{"molecule": "C=CC(=O)NCC(C)(C)O", "inhibition (%)": 6.82}
{"molecule": "C/C=C/C(=O)NCC(C)(C)O", "inhibition (%)": 29.9}
{"molecule": "CCC/C=C/C(=O)NCC(C)C", "inhibition (%)": 64.1}
{"molecule": "CCC(=O)NCC(C)(C)O", "inhibition (%)": 7.26}
{"molecule": "CC/C=C/C(=O)NCC(C)(C)O", "inhibition (%)": 53.1}
{"molecule": "CC(=O)NCC(C)(C)O", "inhibition (%)": 1.11}

# batch size: 6; output inhibition per entry
1. CCCCC(=O)NCC(C)(C)O
2. C=C(C)CNC(=O)CCCCC
3. C=CCSSCC=C [DIALLYLDISULFIDE]
4. CCCCC(=O)NCC(C)C
5. C/C=C/C=C/C(=O)NCC(C)(C)O
6. C=C(C)CNC(=O)CCC

Given back:
1. 40
2. 72.7
3. 36.1
4. 77.2
5. 26.3
6. 61.5

###

For each entry below, report its inhibition value.
Assay: Inhibition of quorum sensing system in Pseudomonas aeruginosa PAO1-lasB-gfp assessed as inhibition of lasB expression at 50 ug/ml incubated for 8 hrs under shaking condition by microplate reader based analysis relative to control
Conditions: dose 50.0 µg/ml
One number for each entry, in %.

// solved cases for inhibition follow
{"structure_smiles_string": "CCCCCCC(=O)NCC(C)(C)O", "inhibition [%]": 13.1}
{"structure_smiles_string": "C/C=C/C=C/C(=O)NCC(C)C", "inhibition [%]": 82.2}

Answer for every listed entry: what is its inhibition? The entries follow.
1. CCCC(=O)NCC(C)C
2. C=CC(=O)NCC(=C)C
3. C=C(C)CNC(=O)/C=C/CCC
4. C=C(C)CNC(=O)CCCC
5. CC/C=C/C(=O)NCC(C)C
6. C=C(C)CNC(=O)/C=C/C=C/C
7. CCCCCCC(=O)NCC(C)C
8. C=C(C)CNC(C)=O

Given back:
1: 65.7; 2: 54.7; 3: 77.1; 4: 72.2; 5: 71.5; 6: 38.9; 7: 2.28; 8: 10.5

Take each entry in turn and give its inhibition.
1. CC(=O)NCC(C)C
2. C=CC(=O)NCC(C)C

Given back:
1: 13.8; 2: 55.1
